Target: HIPK2 (human)
Assay: KINOMEscan competition binding
Details: compound 10.0 µM

[
  {
    "structureSmilesString": "CCOc1cc(N2CCC(O)CC2)ccc1Nc1ncc2c(n1)N(C)c1ccccc1C(=O)N2C",
    "kinase still bound, per cent of control [%]": 100
  },
  {
    "structureSmilesString": "Cc1cn(-c2cc(C(=O)Nc3ccc(C)c(NC(=O)c4ccno4)c3)cc(C(F)(F)F)c2)cn1",
    "kinase still bound, per cent of control [%]": 100
  },
  {
    "structureSmilesString": "O=c1[nH]c2ccccc2n1C1CCN(Cc2ccc(-c3nc4cc5[nH]cnc5cc4nc3-c3ccccc3)cc2)CC1",
    "kinase still bound, per cent of control [%]": 88
  },
  {
    "structureSmilesString": "COc1cc2ncnc(Nc3cccc(Cl)c3)c2cc1OC",
    "kinase still bound, per cent of control [%]": 80
  },
  {
    "structureSmilesString": "CCN(CCO)CCCOc1ccc2c(Nc3cc(CC(=O)Nc4cccc(F)c4)[nH]n3)ncnc2c1",
    "kinase still bound, per cent of control [%]": 31
  }
]

Sourced from the kinase profiling compilation of Christmann-Franck et al. (2016)
